# Tested on: P12-Ichikawa
# METHOD_DESCRIPTION: cell viability relative to DMSO control; higher = less cytotoxic
# STATED_CONDITIONS: RPMI 5 mM glucose + 10% FBS; 48 h; 5.12 µM
QUANTITY: cell viability (%)

{"COMPOUND": "CCCCN1CCC(CNC(=O)c2c3n(c4ccccc24)CCCO3)CC1", "READOUT_UNIT": "%", "OBSERVED_RESULT": 112}
{"COMPOUND": "NCCOc1cc(C(=O)Nc2cc(OCCN)c3ccccc3n2)nc(C(=O)Nc2cc(OCCN)c3ccccc3n2)c1", "READOUT_UNIT": "%", "OBSERVED_RESULT": 16.7}
{"COMPOUND": "CC(C)(C)NCC(O)c1ccc(O)c(CO)c1 (stereo not given)", "READOUT_UNIT": "%", "OBSERVED_RESULT": 84.4}
{"COMPOUND": "CC1(C)[C@@H](O)CC[C@@]2(C)[C@H]1CC[C@]3(C)[C@@H]2C(=O)\\C=C/4[C@@H]5C[C@](C)(CC[C@]5(C)CC[C@@]34C)C(O)=O", "READOUT_UNIT": "%", "OBSERVED_RESULT": 100}
{"COMPOUND": "O=C(Nc1cccnc1)N1CCC(Cc2cccc(Oc3ccc(C(F)(F)F)cn3)c2)CC1", "READOUT_UNIT": "%", "OBSERVED_RESULT": 55.6}
{"COMPOUND": "O=C(Nc1ccccc1)Nc1ccc(-c2ccc(C(=O)[C@@H]3CCC[C@H]3C(=O)O)cc2)cc1", "READOUT_UNIT": "%", "OBSERVED_RESULT": 92.8}
{"COMPOUND": "Cc1cnc(Nc2cccc(CN3CCOCC3)c2)nc1Nc1cccc([S+](=O)([O-])NC(C)(C)C)c1", "READOUT_UNIT": "%", "OBSERVED_RESULT": 20.5}
{"COMPOUND": "Cc1noc(N[S+](=O)([O-])c2ccc(N)cc2)c1C", "READOUT_UNIT": "%", "OBSERVED_RESULT": 102}
{"COMPOUND": "COC(=O)CCC1=C(C)C2=CC3=NC(=CC4=C(C)C(=C([NH]4)C=C\\5N=C(C=C1[NH]2)\\C(=C5C)CCC(O)=O)C=C)\\C6=C\\C=C(/[C@@H](C(=O)OC)[C@@]36C)C(=O)OC", "READOUT_UNIT": "%", "OBSERVED_RESULT": 88.9}
{"COMPOUND": "Clc1ccc(C(c2ccc(Cl)cc2)[n+]2ccn(CC(OCc3ccc(Cl)cc3Cl)c3ccc(Cl)cc3Cl)c2)cc1 (stereo not given)", "READOUT_UNIT": "%", "OBSERVED_RESULT": 105}
{"COMPOUND": "CCC(=O)N1CCN(CC1)C2=C(C=C(C=C2)N3C(=O)\\C=C/C4=C3C5=CC(=CC=C5N=C4)C6=CN=C7C=CC=CC7=C6)C(F)(F)F", "READOUT_UNIT": "%", "OBSERVED_RESULT": 59.6}
{"COMPOUND": "CCC(=O)NC[C@H](Cc1ccc(OCCc2nc(-c3ccccc3)oc2C)cc1)N/C(C)=C\\C(=O)c1ccc(C(F)(F)F)cc1", "READOUT_UNIT": "%", "OBSERVED_RESULT": 66.7}
{"COMPOUND": "C[C@H](NC(=O)[C@@H](O)c1cc(F)cc(F)c1)C(=O)N[C@@H]1C(=O)N(C)c2ccccc2-c2ccccc21", "READOUT_UNIT": "%", "OBSERVED_RESULT": 99.8}
{"COMPOUND": "CC[C@H](CO)Nc1nc(NCc2ccccc2)c2ncn(C(C)C)c2n1", "READOUT_UNIT": "%", "OBSERVED_RESULT": 86.4}
{"COMPOUND": "CC(C)(C)[C@]1(O)C[C@@H]2OC(=O)C[C@@]23C(=O)O[C@@H]2OC(=O)[C@H](O)C213 (stereo not given in full)", "READOUT_UNIT": "%", "OBSERVED_RESULT": 116}
